Reference source: ChEMBL document CHEMBL4196076

Kindly supply the reported EC50 values for the records listed here.
# Test system: 518A2
# procedure-text: Cytotoxicity against human 518A2 cells after 96 hrs by sulforhodamine-B assay
# Assay type: functional, cell-based
# reported-conditions: 518A2, 96 h

Problem: Find the recorded EC50 belonging to "CCCCNC(=O)CN(Cc1ccoc1)C(=O)[C@]12CCC(C)(C)C[C@H]1C1=CC[C@@H]3[C@@]4(C)CC[C@H](OC(C)=O)C(C)(C)[C@@H]4CC[C@@]3(C)[C@]1(C)CC2" and report it.
Result: 11.3 µM

Problem: Find the recorded EC50 belonging to "CC(=O)O[C@H]1CC[C@]2(C)[C@H]3CC=C4[C@@H]5CC(C)(C)CC[C@]5(C(=O)N(C)CC(=O)NC(C)(C)C)CC[C@@]4(C)[C@]3(C)CC[C@H]2C1(C)C" and report it.
Result: 8.8 µM

Problem: Find the recorded EC50 belonging to "CCCCNC(=O)CN(Cc1ccccc1)C(=O)[C@]12CCC(C)(C)C[C@H]1C1=CC[C@@H]3[C@@]4(C)CC[C@H](O)C(C)(C)[C@@H]4CC[C@@]3(C)[C@]1(C)CC2" and report it.
Result: > 30 µM

Problem: Find the recorded EC50 belonging to "C=CCN(CC(=O)NC(C)(C)C)C(=O)[C@]12CCC(C)(C)C[C@H]1C1=CC[C@@H]3[C@@]4(C)C[C@@H](OC(C)=O)[C@H](OC(C)=O)C(C)(C)[C@@H]4CC[C@@]3(C)[C@]1(C)CC2" and report it.
Result: 2.9 µM

Problem: Find the recorded EC50 belonging to "CC1(C)CC[C@]2(C(=O)O)CC[C@]3(C)C(=CC[C@@H]4[C@@]5(C)CC[C@H](O)C(C)(C)[C@@H]5CC[C@]43C)[C@@H]2C1" and report it.
Result: 61.3 µM
